Items are presented alongside their recorded folding stability dG.
B1: r16_88_TrROS_Hall (parent)
chain: EVIELKIKFKTPEQREKLKEIAKKLNAEVVEEKDGEVIIRFKTPEQAERALKEAEKLGAEVEL

Variants of: B1
Experiment: folding stability dG (cDNA display proteolysis); higher = more stable
Conditions: PBS, room temperature
Respond numerically; units are kJ/mol and should not be typed.

Please review the entries below; each comes with its answer.
• E31M = 18.3
• N26C = 18.1
• V37Y = 17.3
• E36D = 18.8
• I38Q = 18.1
• E60N = 18
• F9G = 16.3
• R49A = 18.3
• Q14T = 18
• K10W = 18

Recorded result, L51S , folding stability dG: 19.2

Entry K23E , folding stability dG reported as 18.2

Entry R15P , folding stability dG reported as 14.4

folding stability dG reading for E31A : 18

Lab book: folding stability dG of T11M noted as 19.4

folding stability dG reported for this variant L63F : 17

The variant identified as I21G registered its folding stability dG at 15.8

The variant K6H showed folding stability dG equal to 18.8

Lab book: folding stability dG of A50N noted as 15

For reference, reported folding stability dG for P12K stands at 18.4

Per the records, this variant ( A54Q ) has folding stability dG equal to 15.1

// K42Y : folding stability dG value = 18.2
